These entries and their values trace back to patent US20250026813A1.

# Lookup of reported HTRF deltaF keyed by entry
TEST_SYSTEM: T1, S2 subunit of the SARS-CoV-2 spike protein (Sino Biological 40590-V08B), His tag (SARS-CoV-2, UniProt P0DTC2 686-1213)
T1 construct: domain: S2 subunit
PARAMETER: HTRF deltaF (deltaF)

1. IMPI-006 (antibody, V domains shown) VH: QLQLQESGPGLVKPSETLSLTCTVSGGSISNSNYYWGWIRQPPGKGLEWIGSIYYSGRTYYNPSLKSRVTISVDTSKNQFSLKLSSVTAADTAVYYCARMGLLWFGEFYGMDVWGQGTTVTVSS VL: DIQMTQSPSSLSASVGDRVTITCRASQGISSWLAWYQQKPEKAPKSLIYDASSLQRGVPSRFSGSGSGTDFTLTISSLQPEDFASYYCQQYNSYPLTFGGGTRVEIK	40.7
2. IMPI-005 (antibody, V domains shown) VH: EVQLVESGGGLIQPGGSLRLSCAASGFTVSSNYMNWVRQAPGKGLEWVSVIYSGGSTYYADSVKGRFTISRDNSKNTLFLQMNSLRAEDSAVYYCARDLGPYGVDVWGQGTTVTVSS VL: DIQLTQSPSFLSASVGDRVTITCWASQGISSYLAWYQQKPGKAPKLLIYAASTLQSGVPSRFSGSGSGTEFTLTISSLQPEDFATYYCQELNSYPLTFGQGTRLEIK	-1.8
3. IMPI-021 (antibody, V domains shown) VH: EVQLVESGGGLIQPGGSLRLSCAASGVTVSSNYMSWVRQAPGKGLEWVSVIYSGGSTFYADSVKGRFTISRDNSKNTLYLQMNSLRAEDTAVYYCARDLSYYGMDVWGQGTTVTVSS VL: DIQLTQSPSFLSASVGDRVTITCWASQGISSYLAWYQQKPGKAPKLLIYAASTLQSGVPSKFSGSGSGTEFTLTISSLQPEDFATYYCQQLNSYPCSFGQGTKLEIK	-0.3
4. IMPI-063 (antibody, V domains shown) VH: EVQLVESGGGVVRPGGSLRLSCAASGFTFDDYGMSWVRQAPGKGLEWVSGIYWNGGSTGYADSVKGRFTISRDNAKNSLYLQMNSLRAEDMALYYCARGVGATDYWGQGTLVTVSS VL: EIVLTQSPGTLSLSSGERATLACRASESVRGSFLAWYQQKPGQAPRLLIYGASRRATGIPDRFSGSGSGTDFTLTISRLEPEDFAVYYCQQYGNSPMCSFGQGTKLEIK	411
5. IMPI-054 (antibody, V domains shown) VH: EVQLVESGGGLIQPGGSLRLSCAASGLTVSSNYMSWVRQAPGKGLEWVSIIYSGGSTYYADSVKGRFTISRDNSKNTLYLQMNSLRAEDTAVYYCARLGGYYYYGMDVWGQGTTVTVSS VL: DIQMTQSPSSLSASVGERVTITCQASQDIRNYLNWYQKKPGKAPKLLIYDSSNLETGVPSRFSGSGSGTDFTFTISSLQPEDIATYYCQQYDNLPITFGQGTRLEIK	15.8
6. IMPI-060 (antibody, V domains shown) VH: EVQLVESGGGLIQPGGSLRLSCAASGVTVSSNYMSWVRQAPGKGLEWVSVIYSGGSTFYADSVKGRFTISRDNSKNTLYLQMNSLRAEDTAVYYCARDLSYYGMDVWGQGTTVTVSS VL: DIQLTQSPSFLSASVGDRVTITCWASQGISSYLAWYQQKPGKAPKLLIYAASTLQSGVPSKFSGSGSGTEFTLTISSLQPEDFATYYCQQLNSYPSSFGQGTKLEIK	6
7. IMPI-029 (antibody, V domains shown) VH: EVQLVESGGGLIQPGGSLRLSCAASGVTVSSNYMNWVRQAPGKGLEWVSVIYSGGSTYYADSVKGRFTISRDNSKNTLFLQMNSLRAEDSAVYYCARDLGPYGVDVWGQGTTVTVSS VL: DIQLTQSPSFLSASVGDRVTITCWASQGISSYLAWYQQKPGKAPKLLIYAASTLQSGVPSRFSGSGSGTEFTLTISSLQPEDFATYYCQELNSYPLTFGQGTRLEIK	4.1
